- system name: T1, agonist-bound β2AR-356 reconstituted at high density into phospholipid vesicles (UniProt P07550 1-365)
- T1 construct: Solid phase coated on Maxisorb plates for ELISA; also called purified receptor alone; reconstituted receptor alone
- protocol details: ELISA on purified receptor alone
readout: binding result

Lab book: binding result of Nanobody 35 (CA4435) (VHH, Llama VHH raised against the BS2G cross-linked β2AR:Gs:BI167107 complex; expressed in E. coli periplasm; also called Nb35; NB35) VHH: QVQLQESGGGLVQPGGSLRLSCAASGFTFSNYKMNWVRQAPGKGLEWVSDISQSGASISYTGSVKGRFTISRDNAKNTLYLQMNSLKPEDTAVYYCARCPAPFTRDCFDVTSTTYAYRGQGTQVTVSS noted as no binding

Lab book: binding result of Nanobody 33 (CA4433) (VHH, Tested as periplasmic extract in ELISA; also called Nb33) VHH: QVQLQESGGGLVQPGGSLRLSCAASGFTFSNYVMNWVRQAPGKGLEWVSDISNGGGTTSYASSVKGRFTISRDNAKNTLYLQMNGLKPADTAVYYCARCPAPFTNDCMDITSTTYAYRGQGTQVTVSS noted as no binding

Lab book: binding result of Nanobody 37 (CA4437) (VHH, also called Nb37) VHH: QVQLQESGGGFVQAGGSLRLSCAASGSIFSKNTMAWFRQAPGKERELVAASPTGGSTAYKDSVKGRFTISRDSAKNTVLLQMNVLKPEDTAVYYCHLRQNNRGSWFHYWGQGTQVTVSS noted as no binding

Lab book: binding result of Nanobody 41 (CA4441) (VHH, Tested as periplasmic extract in ELISA; also called Nb41) VHH: QVQLQESGGGLVQSGGSLRLSCVASGFRFSNFPMMWVRQAPGKGLEWVSLISIGGSTTNYADSVKGRFTISRDNAKNTLFLQMNSLKPEDTAVYYCAKYLGRLVPPTTEGQGTQVTVSS noted as no binding
